SYSTEM: Full-length wild type HIV-1 integrase (SF1) (Human immunodeficiency virus type 1 group M subtype B, UniProt P04585)
Construct: made in house; host or cells: E. coli BL21 (DE3)
ASSAY_COMMENT: Integrase strand-transfer scintillation proximity assay
Type: biochemical
CONDITION_DETAILS: strand transfer, 50 min at 37° C., 246 nM integrase, 50 nM host DNA; read-out: IC50
REPORTED_PROPERTY: IC50 (nM)

1. CN(O)C(=O)c1cc2c(COCCN3CCCC3=O)cn(Cc3ccc(F)cc3)c2cn1; 200
2. O=C(NO)c1cc2c(CNCC(O)c3ccccc3)cn(Cc3ccc(F)cc3F)c2cn1 (centres unmarked); 316
3. CN(O)C(=O)c1cc2c(CN3CCOCC3)cn(Cc3ccc(F)cc3F)c2cn1; 140
4. O=C(NO)c1cc2ccn(Cc3ccc(F)cc3F)c2cn1; 84
5. O=C(NO)c1cc2c(cn1)c(C(O)c1ccc(F)cc1)cn2Cc1ccc(F)cc1 (centres unmarked); 186
6. CN(O)C(=O)c1cc2c(CN3CC[C@H]4CNC(=O)[C@H]4C3)cn(Cc3ccc(F)cc3F)c2cn1; 40
7. O=C(NO)c1cc2c(CN[C@@H](CO)c3ccccc3)cn(Cc3ccc(F)cc3F)c2cn1; 221
8. O=C(NO)c1cc2ncn(Cc3cccc(F)c3F)c2cn1; 1040

----------
SYSTEM: Full-length wild type HIV-1 integrase (SF1) (Human immunodeficiency virus type 1 group M subtype B, UniProt P04585)
Construct: made in house; host or cells: E. coli BL21 (DE3)
ASSAY_COMMENT: Integrase strand-transfer scintillation proximity assay
Assay type: biochemical
CONDITION_DETAILS: strand transfer, 50 min at 37° C., 246 nM integrase, 50 nM host DNA; read-out: IC50
Description: Integrase Strand-Transfer Scintillation Proximity Assay Oligonucleotides Oligonucleotide #1-5′-(biotin)[…]-3′ (SEQ ID NO: 1) and oligonucleotide #2-5′-[…]-3′ (SEQ ID NO: 2), were synthesized by TriLink BioTechnologies, Inc. (San Diego, Calif.). The annealed product represents preprocessed viral ds-DNA derived from the LTR U5 sequence of the viral genome. […]
pIC50: −log10 of the molar value.
Reported pIC50 values for the following compounds.
REPORTED_PROPERTY: pIC50

1) CN1CCC(NCc2cn(Cc3ccc(F)cc3F)c3cnc(C(=O)NO)cc23)CC1 [Example 89]; 6.15
2) O=C(NO)c1cc2c(CN[C@@H]3C[C@H]4CC[C@@H]3C4)cn(Cc3ccc(F)cc3F)c2cn1 [Example 74]; 6.45
3) CN(O)C(=O)c1cc2c(COC3CCOCC3)cn(Cc3ccc(F)cc3)c2cn1 [Example 118]; 7.24
4) CC(C)N(O)C(=O)c1cc2ccn(Cc3ccc(F)cc3)c2cn1 [Example 27]; 5.10
5) O=C(NO)c1cc2ncn(CCC3CCCCC3)c2cn1 [Example 25]; 5.76
6) COCc1c(C(=O)NO)ncc2c1ccn2Cc1ccc(F)cc1F [Example 19]; 6.66
7) CN(Cc1cnn(-c2ccccc2)c1)Cc1cn(Cc2ccc(F)cc2F)c2cnc(C(=O)NO)cc12 [Example 93]; 6.73
8) CC(C)OCCCNCc1cn(Cc2ccc(F)cc2F)c2cnc(C(=O)NO)cc12 [Example 83]; 6.02
9) C=CCONC(=O)c1cc2c(CN3CCNC(=O)C3)cn(Cc3ccc(F)cc3)c2cn1 [Example 103]; 6.15
10) CC(C)(C)[C@@H](CO)NCc1cn(Cc2ccc(F)cc2F)c2cnc(C(=O)NO)cc12 [Example 87]; 6.09
11) O=C1CN(Cc2cn(Cc3ccc(F)cc3)c3cnc(C(=O)NO)cc23)CCN1 [Example 15]; 7.39
12) CN(C)CCNCc1cn(Cc2ccc(F)cc2F)c2cnc(C(=O)NO)cc12 [Example 72]; 6.18
13) O=C(NO)c1cc2c(CNCc3ccc(F)cc3)cn(Cc3ccc(F)cc3F)c2cn1 [Example 70]; 6.48
14) CCO/C=C/c1c(C(=O)NO)ncc2c1ccn2Cc1ccc(F)cc1 [Example 38]; 6.84
15) COc1ncccc1NCc1cn(Cc2ccc(F)cc2F)c2cnc(C(=O)NO)cc12 [Example 90]; 6.67
16) CCC(CC)NCc1cn(Cc2ccc(F)cc2F)c2cnc(C(=O)NO)cc12 [Example 82]; 6.20
17) O=C(NO)c1cc2c(CN3CC[C@@H]4C(=O)NC[C@@H]4C3)cn(Cc3ccc(F)cc3F)c2cn1 (racemic) [Example 16]; 6.96
18) CC(CO)NCc1cn(Cc2ccc(F)cc2F)c2cnc(C(=O)NO)cc12 (stereo not drawn) [Example 53]; 6.44
